Consider the following binders; for each one, report its pIC50.
# System Name: human KLK1 (human, UniProt P06870 25-262, limits assumed)
# Sequence (P06870 25-262 limits assumed): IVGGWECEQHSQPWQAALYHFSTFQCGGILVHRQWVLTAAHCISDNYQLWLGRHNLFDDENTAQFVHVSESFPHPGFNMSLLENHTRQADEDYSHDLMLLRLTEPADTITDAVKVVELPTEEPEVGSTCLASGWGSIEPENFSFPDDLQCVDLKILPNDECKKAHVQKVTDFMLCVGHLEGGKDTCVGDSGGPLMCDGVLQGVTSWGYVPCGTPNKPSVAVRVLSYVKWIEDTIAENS
# Assay Protocol: column 7: KLK1 activity assay, 3 nM KLK1
pIC50: −log10 of the molar value.

Reported pIC50 for 3-3F5 (antibody, V domains shown, Rabbit monoclonal; also called Chimeric 3-3F5) VH: QSVKESEGGLFKPTDTLTLTCTVSGFSLNDYGVSWVRQAPGNGLEWIGAIGSSGVAWYANWAKGRSTITRNTNLNTVTLKMASLTAADTATYFCARDRDYGYRADDATSGMDLWGPGTLVTVSS VL: AYDMTQTPASVEAAVGGTVTIKCQASESIGNALAWYQQKPGQPPKLLIYDASDLASGVPSRFKGSGSGTQFTLTISGVECADAATYYCQQGDSHNNVDNIFGGGTEVVVK was < 7.00

Reported pIC50 for 8B7 (antibody, V domains shown) VH: QSVKESEGGLFKPTDNLTLTCTVSGFSLSNYGVTWVRQAPGNGLEYIGFIGSSGSAYYASWAKSRSTITRNTNLNTVTLKMTSLTAADTATYFCARDDVGGGKSLDIWGPGTLVTVSS VL: NIVMTQTPASVEVAVGGTVTIKCQASQSIGSYLSWYQQKPGQPPKLLIYDASNLASGVPSRFKGSGSGTQFTLSISDLECADAATYYCHQDYTSNNVDNTFGGGTEVVIK was < 7.00

Reported pIC50 for 2-3F4 (antibody, V domains shown) VH: QSVEESRGGLIKPTDTLTLTCTASGFSLSNYGVSWVRQAPGNGLEYIGFIGYGGSTYYASWAKSRSTITRNTNLNTVTLQMTSLTAADTATYFCARLCGVDCADALDSWGPGTLVTVSS VL: AYYMTQTPASVEVAVGGTVTIKCQASEDIGSYCSWYQQKPGQPPKLLIYDASDLASGVPSRFKGSGSGTDFTLTISGVQCDDAATYYCQQDYTGNNVDNTFGGGSEVVVK was < 7.00

Reported pIC50 for 8F5 (antibody, V domains shown) VH: QSVKESEGGLFKPTDTLTLTCTVSGFSLSSYPISWVRQAPGNGLEWIGYITSEYGVAYYATWAESRSTITRNTNLNTVTLKMTSLTAADTATYFCVRENPTYGYAYDAWGPGTLVTVSS VL: AYDLTQTPASVEAAVGGTVTINCQASESIGNELSWYQQKSGQPPKLLIYQASTLASGVPSRFKGSGSGTDFTLTISDLECADAATYYCAQGFSSSGVENVFGGGTEVVVK was < 7.00
